Assay: Bmi1 luciferase reporter increase in mESCs, primary screen, esBAF inhibitor project, mouse ES cells, Bmi1 luciferase knock-in, single point (AID 602393);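 also: 0% = median of the plate's neutral control wells and 100% = double that signal; a rise in the Bmi1 reporter signal indicates esBAF inhibition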
Conditions: 24 h, at 12.5 µM, 100% = twice the neutral-well signal
In all, about 350,000 compounds went through this assay and about 7,000 (2%) were called active. Rule as the data show it: active = activation above about 40%; inconclusive = no clear call, values can overlap the other calls; inactive = below that. The full list was thinned out, with actives kept by preference.
Labels: class 1 for active, class 0 for inactive

compound | class
C[C@@H]1CCCCO[C@H](CN(C)C(=O)Cc2ccccc2)[C@H](C)CN([C@H](C)CO)C(=O)c2cc(NS(=O)(=O)c3cn(C)cn3)ccc2O1 | class 0
CCn1nc(C)c(/C=N/NC(=O)Cc2ccc(Cl)cc2)c1C | class 1
CCCOC(=O)C1=C(C)NC2=C(C(=O)C(C(=O)OC)C(C)C2)C1c1ccc(N(C)C)cc1 (stereo not drawn) | class 0
Fc1ccccc1COc1cccc2cccnc12 | class 1
O=C(NCC[C@@H]1CC[C@H](NS(=O)(=O)c2cccc(F)c2)[C@H](CO)O1)c1cnccn1 | class 0
O=C(C[C@H]1CC[C@@H]2[C@H](COC[C@@H](O)CN2Cc2cc(F)cc(F)c2)O1)NC1CCC1 | class 0
CN1CCN(C(=O)C[C@@H]2CC[C@@H]3[C@H](COC[C@@H](O)CN3Cc3cccc(F)c3)O2)CC1 | class 0
CO[C@H]1CC[C@@H]2CCOc3c(C#N)cccc3C(=O)N(C)C[C@H](C)C(=O)N(C)C[C@H]1O2 | class 0
CCCCC(=O)Nc1cc(C)c2c(=O)oc3ccccc3c2n1 | class 0
COc1ccc(NC(=O)N(C)C[C@@H]2Oc3ncc(-c4ccc(C#N)cc4)cc3C(=O)N([C@@H](C)CO)C[C@H]2C)cc1 | class 0
C[C@@H]1CN([C@H](C)CO)C(=O)c2cc(NC(=O)CCCN(C)C)ccc2O[C@@H](C)CCCCO[C@@H]1CN(C)Cc1ccncc1 | class 0
CCOC(=O)C1(Cc2cccc(OC)c2)CCN(C(C)CC(C)(C)O)CC1 (stereo not drawn) | class 0
CC(C)CC#Cc1cnc2c(c1)C(=O)N([C@@H](C)CO)C[C@H](C)[C@@H](CN(C)Cc1ccccc1C(=O)O)O2 | class 0
O=C(Cc1ccccc1)N/N=C/c1ccc(Cl)cc1Cl | class 0
CC(=O)Nc1ccc2c(c1)C(=O)N(C)[C@@H]1CC[C@H](CC(=O)NCc3ccccc3)O[C@H]1CO2 | class 0
CCCc1cn(CC[C@@H]2CC[C@@H](NC(=O)C3CC3)[C@H](CO)O2)nn1 | class 0
COCC(=O)N1C[C@H]2[C@@H](c3ccccc31)[C@@H](CO)N2Cc1ccccc1 | class 0
Cc1noc(C)c1NC(=O)Nc1ccc2c(c1)C(=O)N([C@@H](C)CO)C[C@H](C)[C@@H](CN(C)C(=O)C1CCCCC1)OCCCC[C@@H](C)O2 | class 0
